tested on: L1210 leukemia ip in BDF1 mice, survival T/C; assay: NCI In Vivo Anticancer Drug Screen. Data for tumor model L1210 Leukemia (intraperitoneal) in B6D2F1 (BDF1) mice; details: endpoint: mean survival time; dose: 400.0 mg/kg/injection; schedule: Q04DX003 (ip); vehicle: saline with Tween-80; higher = longer survival
Toxic doses and inconclusive results are not listed.
Quantity Kind: T/C

Task: Record request: T/C value, item NC(=O)c1cccc([N+](=O)[O-])c1
Result: 93 % of control

Task: Record request: T/C value, item CCOC(=O)c1nc2cc(C)c(C)cc2[nH]c1=O
Result: 93 % of control

Task: Record request: T/C value, item Nc1ccc(CCc2[nH]c(N)nc(=S)c2-c2ccc(Cl)cc2)cc1
Result: 86 % of control

Task: Record request: T/C value, item O=C(CCCCC(=O)N/N=C\c1ccccc1O)N/N=C\c1ccccc1O
Result: 87 % of control

Task: Record request: T/C value, item COC1OCC(N=[N+]=[N-])C(OC)C1O (stereo unspecified)
Result: 98 % of control

Task: Record request: T/C value, item COc1ccc(OC)c(NC(=O)c2ccc(Cl)c(Cl)c2)c1
Result: 89 % of control

Task: Record request: T/C value, item Cc1nc(NC(=O)CBr)[nH]c(=O)c1CCC(C)C
Result: 88 % of control

Task: Record request: T/C value, item CN(C)c1ccc(C=C(c2ccc(N)cc2)c2ccc(N)cc2)cc1
Result: 96 % of control

Task: Record request: T/C value, item c1ccc(C(c2ccccc2)[Si](c2ccccc2)(c2ccccc2)C(c2ccccc2)c2ccccc2)cc1
Result: 91 % of control

Task: Record request: T/C value, item C/C(=N/O)c1ccc(/C(C)=N/O)cc1
Result: 95 % of control

Task: Record request: T/C value, item CC(=O)/C(C)=C\c1ccc(O)cc1
Result: 102 % of control

Task: Record request: T/C value, item COC(=O)c1cc(Cl)cc(C(=O)OC)c1
Result: 93 % of control

Task: Record request: T/C value, item COC(=O)C1C=CCC(C(=O)OC)C1 (stereo unspecified)
Result: 93 % of control

Task: Record request: T/C value, item CC(C)(C)c1ccc(OS(=O)(=O)c2cccc([N+](=O)[O-])c2)cc1
Result: 106 % of control

Task: Record request: T/C value, item Cc1ccc(-c2c(O)c(Br)c(-c3ccc(C)cc3C)c(O)c2Br)c(C)c1
Result: 93 % of control

Task: Record request: T/C value, item Cc1ccc(OS(=O)(=O)c2cccc([N+](=O)[O-])c2)cc1
Result: 100 % of control

Task: Record request: T/C value, item O=C(/C=C/c1ccccc1)NC(=S)Nc1ccc(CCO)cc1
Result: 87 % of control

Task: Record request: T/C value, item O=C(NOC(=O)c1ccccc1)c1ccccc1
Result: 101 % of control

Task: Record request: T/C value, item COc1ccc(CCNC(=O)c2ccccc2N)cc1OC
Result: 95 % of control

Task: Record request: T/C value, item COc1cc(C(C)O)cc(OC)c1OC (stereo unspecified)
Result: 99 % of control

Task: Record request: T/C value, item O=C(O)c1ccc2c3c(ccc([N+](=O)[O-])c13)C=C2
Result: 103 % of control

Task: Record request: T/C value, item CSCCNC(=O)NS(=O)(=O)c1ccc(C)cc1
Result: 97 % of control

Task: Record request: T/C value, item CNc1ccc(/C=N/CCl)cc1
Result: 96 % of control

Task: Record request: T/C value, item CCC(=O)c1ccc(OC(=O)Nc2ccc(Cl)cc2[N+](=O)[O-])cc1
Result: 97 % of control

Task: Record request: T/C value, item COc1ccc(C(C(N)=O)N2CCCC2)cc1 (stereo unspecified)
Result: 96 % of control

Task: Record request: T/C value, item c1ccc2c(c1)C1C3CCC(C3)C21 (stereo unspecified)
Result: 98 % of control

Task: Record request: T/C value, item CC1(c2ccco2)C(=O)NC(=O)N1C(=O)CCl (stereo unspecified)
Result: 101 % of control

Task: Record request: T/C value, item C1=CC2CC3(OCCO3)C2C1 (stereo unspecified)
Result: 92 % of control

Task: Record request: T/C value, item O=[N+]([O-])c1ccc(Cl)c(CNc2ncnc3nc[nH]c23)c1
Result: 106 % of control

Task: Record request: T/C value, item O=C(NCO)NC1NC(=O)NC1=O (stereo unspecified)
Result: 108 % of control

Task: Record request: T/C value, item CCN1CCC2C[N+](C)([O-])CCN2C1=O (stereo unspecified)
Result: 98 % of control

Task: Record request: T/C value, item COC1(c2ccc(C(F)(F)F)cc2)OC1(C)C (stereo unspecified)
Result: 102 % of control

Task: Record request: T/C value, item Nc1ccc(N=Nc2ccccc2)cc1[N+](=O)[O-]
Result: 94 % of control

Task: Record request: T/C value, item COc1cc(/C=N/O)ccc1O
Result: 91 % of control

Task: Record request: T/C value, item Nc1ccc(C(=O)Oc2ccc([N+](=O)[O-])cc2)cc1
Result: 86 % of control

Task: Record request: T/C value, item O=[N+]([O-])c1ccc(Oc2ccccc2)c(S(=O)(=O)O)c1
Result: 97 % of control
